The reported measurements were obtained from patent US5518735A.

experiment summary: Plasma concentration in rats after subcutaneous administration (HPLC)
condition summary: rat, plasma, sc, 5 mg/kg
experimental readout: concentration at 4 h (ng/mL)
# value in ng/mL; strip the unit string

// solved cases for concentration at 4 h follow
compound | scale unit | observed result
N=C(N)c1cccc(CC(NS(=O)(=O)c2ccc3ccccc3c2)C(=O)N2CCCCC2C(=O)O)c1 (racemic) [Compound 83] | ng/mL | 297
N=C(N)c1cccc(CC(NS(=O)(=O)c2ccc3ccccc3c2)C(=O)N2CCC(C(=O)O)CC2)c1 (racemic) [Compound 85] | ng/mL | 676

// query I am curious: what concentration at 4 h value has been reported for N=C(NO)c1cccc(CC(NS(=O)(=O)c2ccc3ccccc3c2)C(=O)N2Cc3ccccc3CC2C(=O)O)c1 (racemic) [Compound 190, hydroiodide] ?
// result 152

====

experiment summary: Plasma concentration in rats after subcutaneous administration (HPLC)
condition summary: rat, plasma, sc, 5 mg/kg
Where a name gives a salt, the structure may show the parent alone.
concentration at 0.5 h: recorded values
The reply should be a number in ng/mL, with the unit left off.

compound | experimental readout | observed result
N=C(N)c1cccc(CC(NS(=O)(=O)c2ccc3ccccc3c2)C(=O)N2CCC(C(=O)O)CC2)c1 (racemic) [Compound 85] | concentration at 0.5 h | 1030
N=C(N)c1cccc(CC(NS(=O)(=O)c2ccc3ccccc3c2)C(=O)N2CCCCC2C(=O)O)c1 (racemic) [Compound 83] | concentration at 0.5 h | 620
N=C(NO)c1cccc(CC(NS(=O)(=O)c2ccc3ccccc3c2)C(=O)N2Cc3ccccc3CC2C(=O)O)c1 (racemic) [Compound 190, hydroiodide] | concentration at 0.5 h | 330
N=C(N)c1cccc(CC(NS(=O)(=O)c2ccc3ccccc3c2)C(=O)N2Cc3ccccc3CC2C(=O)O)c1 (racemic) [Compound 134] | concentration at 0.5 h | 35
NCc1cccc(CC(NS(=O)(=O)c2ccc3ccccc3c2)C(=O)N2CCC(C(=O)O)CC2)c1 (racemic) [Compound 186] | concentration at 0.5 h | 368

--- query ---
// query I have this compound here, N=C(N)c1cccc(C[C@H](NS(=O)(=O)c2ccc3ccccc3c2)C(=O)N2CCC[C@@H]2C(=O)O)c1 [Compound 123, hydrochloride] , and I need its recorded concentration at 0.5 h.
// result 1340

====

We begin with a simple list: items and their reported pKi.
tgt: plasma kallikrein (Homo sapiens)
Construct: glandular kallikrein, factor XIIa and plasma kallikrein
Sequence (P03952 391-638 limits assumed, species assumed): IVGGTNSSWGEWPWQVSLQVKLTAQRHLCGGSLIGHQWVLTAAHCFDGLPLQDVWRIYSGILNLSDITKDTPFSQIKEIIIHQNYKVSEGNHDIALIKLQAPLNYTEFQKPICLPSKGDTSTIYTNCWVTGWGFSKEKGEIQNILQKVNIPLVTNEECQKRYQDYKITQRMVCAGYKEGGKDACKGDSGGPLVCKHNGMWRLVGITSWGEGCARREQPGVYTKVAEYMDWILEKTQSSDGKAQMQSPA
Sequence (P03952 20-390 partner limits assumed, species assumed): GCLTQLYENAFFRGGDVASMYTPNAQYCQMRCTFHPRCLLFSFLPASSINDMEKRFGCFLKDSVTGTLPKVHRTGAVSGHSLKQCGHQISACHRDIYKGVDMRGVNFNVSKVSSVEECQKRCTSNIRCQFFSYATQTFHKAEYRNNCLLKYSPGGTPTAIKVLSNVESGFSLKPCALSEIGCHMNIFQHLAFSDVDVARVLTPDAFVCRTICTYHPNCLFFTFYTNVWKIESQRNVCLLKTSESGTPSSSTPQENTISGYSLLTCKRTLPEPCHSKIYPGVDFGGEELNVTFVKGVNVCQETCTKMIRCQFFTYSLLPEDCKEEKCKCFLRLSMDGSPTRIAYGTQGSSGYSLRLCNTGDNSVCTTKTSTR
experiment summary: Inhibition of plasma kallikrein (Ki)
condition summary: Table 26
Structures can show the parent of a compound that is named as a salt.
pKi here: minus log base 10 of the concentration, concentration in moles per litre.

molecule | pKi
N=C(N)c1cccc(CC(NS(=O)(=O)c2ccc3ccccc3c2)C(=O)N2CCCCC2C(=O)O)c1 (racemic) | 4.49
COC(=O)[C@H]1CCCN1C(=O)[C@H](Cc1cccc(C(=N)N)c1)NS(=O)(=O)c1ccc2ccccc2c1 [Compound 124, hydrochloride] | 4.54
N=C(N)c1cccc(C[C@H](NS(=O)(=O)c2ccc3ccccc3c2)C(=O)N2CCC[C@@H]2C(=O)O)c1 [Compound 123, hydrochloride] | 4.23
CC1CCN(C(=O)C(Cc2cccc(C(=N)N)c2)NS(=O)(=O)c2ccc3ccccc3c2)C(C(=O)O)C1 (racemic) | 4.08
COC(=O)C(Cc1cccc(C(=N)N)c1)NS(=O)(=O)c1ccc2ccccc2c1 (racemic) | 4.74

// query Give the measured pKi of CC1CCN(C(=O)C(Cc2cccc(C(=N)N)c2)NC(=O)CNS(=O)(=O)c2ccc3ccccc3c2)CC1 (racemic) .
// result 4.17

// query Same question, COC(=O)C1CCCCN1C(=O)C(Cc1cccc(C(=N)N)c1)NS(=O)(=O)c1ccc2ccccc2c1 (racemic) this time
// result 4.46
